Target: T1, 6His-Fc-FGFR4 (human, UniProt P22455 144-369)
T1 construct: not shown: 6His tag and Fc as named in '6His-Fc-FGFR'
T1 sequence: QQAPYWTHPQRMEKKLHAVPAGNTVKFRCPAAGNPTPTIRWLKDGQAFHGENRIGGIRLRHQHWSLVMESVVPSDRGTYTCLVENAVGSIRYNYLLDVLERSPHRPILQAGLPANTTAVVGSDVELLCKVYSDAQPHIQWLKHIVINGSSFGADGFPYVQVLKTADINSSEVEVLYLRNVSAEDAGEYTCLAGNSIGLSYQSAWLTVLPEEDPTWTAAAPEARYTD
Test: competition ELISA, blocks 6His-Fc-FGFR4 binding to coated FGF2
ENDPOINT NAME: IC50 (nM)
Numbers only here, please. The scale is nM.

Solved cases below.
BINDER: Ab41 (antibody, human IgG2, kappa, V domains shown, format in the assays not spelled out) VH: EVQLLESGGGVVQPGRSLRLSCAASGFTFSSYAMHWVRQAPGKGLEWVAVISYDGSNKYYADSVKGRFTISRDNSKNTLSLQMNSLRVEDTAIYYCVRGAGLGFPYGPDGFDIWGQGTMVTVSS VL: DIVMTQTPLSLSVTPGQPASISCRSSRSLLHSDGKTYVYWYVQKSGQPPQLLIYELSNRFSGVPDRFSGSGSRTDFTLKISRVEAEDVGVYYCMQYIEAPLTFGGGTKVEIKR
ENDPOINT NAME: IC50
NUMERIC RESULT: 9.87
//
BINDER: Ab72 (antibody, human IgG2, kappa, V domains shown, format in the assays not spelled out) VH: EVQLLESGGGVVQPGRSLRLSCAASGFTFSSYAMHWVRQAPGKGLEWVAVISYDGSNKYYADSVKGRFTISRDNSKNTLSLQMNSLRVEDTAIYYCVRGAGMGLTYGPDGFDIWGQGTMVTVSS VL: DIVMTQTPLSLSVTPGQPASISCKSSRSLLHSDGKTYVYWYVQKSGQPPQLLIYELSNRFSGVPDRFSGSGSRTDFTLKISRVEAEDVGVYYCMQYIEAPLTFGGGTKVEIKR
ENDPOINT NAME: IC50
NUMERIC RESULT: 11.6

Here's the next entry for you.
Per the record, Ab56 (antibody, human IgG2, kappa, V domains shown, format in the assays not spelled out) VH: EVQLLESGGGVVQPGRSLRLSCAASGFTFSSYAMHWVRQAPGKGLEWVAVISYDGSNKYYADSVKGRFTISRDNSKNTLSLQMNSLRVEDTAIYYCVRGAGMGLTYGPDGFDIWGQGTMVTVSS VL: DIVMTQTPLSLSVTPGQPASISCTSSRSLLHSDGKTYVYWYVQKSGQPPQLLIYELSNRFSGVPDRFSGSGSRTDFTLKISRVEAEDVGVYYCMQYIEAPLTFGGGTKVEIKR has IC50 of 13.6
